- experimental_system: HIV protease (Human immunodeficiency virus type 1 group M subtype B, UniProt P04585)
- Construct: an HIV-encoded enzyme known as HIV protease
- test_name: biochemical
- experimental_parameters: recombinant HIV protease; decapeptide substrate; HPLC assay; read-out: IC50 (concentration causing 50% inhibition of HIV protease)
Quick reference for pIC50 among some compounds
Expect pIC50 as a plain number equal to -log10 of the molar concentration.

Answered examples (2):
chemical_string=CCC(CC)NC(=O)C[C@@H](C(=O)NC[C@@H](O)[C@H](Cc1ccccc1)NC(=O)[C@@H](NC(=O)OC(C)(C)C)[C@@H](C)C(=O)OCc1ccccc1)C(C)(C)C value_observed=7.10
chemical_string=CCc1cccc(CC)c1NC(=O)C[C@@H](C(=O)NC[C@@H](O)[C@H](Cc1ccccc1)NC(=O)[C@@H](NC(=O)c1ccc2ccccc2n1)[C@@H](C)O)C(C)(C)C value_observed=8.30

We now examine a further compound.
Task: Could you tell me which pIC50 is on file for CCC(CC)NC(=O)C[C@@H](C(=O)NC[C@@H](O)[C@H](Cc1ccc(O)cc1)NC(=O)COc1c(C)cccc1C)C(C)(C)C ?
Result: 8.51
